B1: Gamma-crystallin S, residues 96 to 176; numbered along this chain, P22914 (parent)
chain: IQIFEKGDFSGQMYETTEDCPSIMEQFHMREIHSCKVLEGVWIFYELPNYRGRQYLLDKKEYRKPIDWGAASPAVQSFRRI

Variants of: B1
Assay: abundance fitness (aPCA) (normalised: wild type 0, dead -1); higher = more abundant; growth selection in yeast, the domain comes from the species named
Settings: Homo sapiens
measured.quantity: abundance fitness
Write the value as a bare number.

Completed entries (count: 10):
[[record]]
variant_name = "F78V"
measurement = -0.039

[[record]]
variant_name = "C35F"
measurement = 0.133

[[record]]
variant_name = "E46S"
measurement = -0.101

[[record]]
variant_name = "I1C"
measurement = 0.104

[[record]]
variant_name = "S34L"
measurement = -0.967

[[record]]
variant_name = "C35R"
measurement = -0.987

[[record]]
variant_name = "H28M"
measurement = -0.05

[[record]]
variant_name = "F9C"
measurement = 0.054

[[record]]
variant_name = "K64I"
measurement = -0.368

[[record]]
variant_name = "R63T"
measurement = -0.102


Task: Read off the recorded abundance fitness for `I43R`
Result: 0.016

Task: Read off the recorded abundance fitness for `I81C`
Result: 0.106

Task: Read off the recorded abundance fitness for `R63K`
Result: -0.093

Task: Read off the recorded abundance fitness for `C20P`
Result: -1.04

Task: Read off the recorded abundance fitness for `Y62M`
Result: 0.116

Task: Read off the recorded abundance fitness for `I43S`
Result: 0.015
